Molecular target: UniProtKB P35520
Sequence (P35520 whole entry): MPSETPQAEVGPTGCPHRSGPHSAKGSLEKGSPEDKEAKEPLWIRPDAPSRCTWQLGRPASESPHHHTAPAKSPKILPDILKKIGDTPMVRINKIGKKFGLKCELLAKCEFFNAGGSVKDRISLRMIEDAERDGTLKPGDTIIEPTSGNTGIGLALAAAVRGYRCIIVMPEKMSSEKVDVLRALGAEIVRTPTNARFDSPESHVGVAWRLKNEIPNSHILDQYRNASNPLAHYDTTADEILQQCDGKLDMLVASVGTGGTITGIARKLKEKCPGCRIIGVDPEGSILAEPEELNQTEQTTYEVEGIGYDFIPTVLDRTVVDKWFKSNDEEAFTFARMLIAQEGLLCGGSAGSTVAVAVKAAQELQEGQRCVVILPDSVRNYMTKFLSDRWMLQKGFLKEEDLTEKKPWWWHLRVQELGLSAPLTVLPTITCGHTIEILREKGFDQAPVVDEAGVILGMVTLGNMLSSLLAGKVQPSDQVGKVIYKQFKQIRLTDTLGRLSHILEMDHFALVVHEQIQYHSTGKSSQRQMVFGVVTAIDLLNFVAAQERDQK
Experiment: Inhibition of full-length GST-fused human CBS using cysteine/homocysteine as substrate assessed as decrease in H2S production preincubated for 3 mins in presence of homocysteine and lead nitrate followed by cysteine addition
Measurement Label: IC50 (µM)

| Molecule | Test Value |
| --- | --- |
| COc1ccc(-c2cc(=O)c3c(O)cc(O)c(-c4cc(-c5cc(=O)c6c(O)cc(O)cc6o5)ccc4O)c3o2)cc1 [PODOCARPUSFLAVONE A] | 8.9 |
| C[C@@H]1O[C@@H](Oc2c(-c3ccc(O)cc3)oc3cc(O)cc(O)c3c2=O)[C@H](OC(=O)/C=C\c2ccc(O)cc2)[C@H](O)[C@H]1OC(=O)/C=C\c1ccc(O)cc1 | 6.2 |
| Oc1cc(O)cc(CCC/C=C\CCCCCCCCCc2cc(O)cc(O)c2)c1 | 7.4 |
| O=C(CCCCCCCCc1ccccc1)c1c(O)cc(O)cc1O | 8.1 |

a: O=c1cc(-c2ccc(O)cc2)oc2c(-c3c(O)cc(O)c4c(=O)cc(-c5ccc(O)cc5)oc34)c(O)cc(O)c12 [CUPRESSUFLAVONE]
b: Oc1ccc(-c2oc3cc(O)cc4c3c2-c2cc(O)cc3c2[C@H](c2cc(O)cc5c2[C@@H]4[C@H](c2ccc(O)cc2)O5)[C@@H](c2ccc(O)cc2)O3)cc1
Field: lower IC50 | Options: a / b # respond with the chosen item's label
b

* * *

target: Cystathionine gamma-lyase (Homo sapiens, UniProt P32929); assay: Inhibition of N-terminal His-tagged CSE extracted from human HepG2 cells expressed in Escherichia coli BL21 (DE3) using methylcysteine as substrate measured for 10 mins by CPM probe-based fluorescence assay
Sequence (P32929 whole entry): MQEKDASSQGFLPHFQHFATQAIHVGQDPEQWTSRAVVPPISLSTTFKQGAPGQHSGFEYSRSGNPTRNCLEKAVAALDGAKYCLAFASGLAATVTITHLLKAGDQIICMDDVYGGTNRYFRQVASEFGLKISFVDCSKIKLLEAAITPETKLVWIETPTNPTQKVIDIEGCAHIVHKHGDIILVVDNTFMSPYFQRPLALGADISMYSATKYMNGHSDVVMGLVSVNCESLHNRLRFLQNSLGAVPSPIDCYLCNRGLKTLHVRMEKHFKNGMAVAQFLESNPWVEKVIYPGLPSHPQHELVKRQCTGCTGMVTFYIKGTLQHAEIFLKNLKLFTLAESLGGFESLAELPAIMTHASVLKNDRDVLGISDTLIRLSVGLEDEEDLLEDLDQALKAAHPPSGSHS
Measurement Label: IC50 (µM)
Hi! Could you send only the number? It should be in µM, unit omitted.

Recall the recorded IC50 for `NOCC(=O)O` with Cystathionine gamma-lyase (Homo sapiens, UniProt P32929) and state it.
0.57

* * *

biological target: Cystathionine gamma-lyase (Homo sapiens, UniProt P32929); assay: Inhibition of N-terminal His-tagged CSE extracted from human HepG2 cells expressed in Escherichia coli BL21 (DE3) using cysteine as substrate assessed as decrease in H2S production preincubated for 3 mins in presence of lead nitrate followed by cysteine addition
Let's look at some compounds and their measured IC50.

Here's what some known entries look like.
| Smiles Representation | Target System | Measurement Label | Test Value |
| --- | --- | --- | --- |
| O=c1cc(-c2ccc(O)cc2)oc2c(-c3c(O)cc(O)c4c(=O)cc(-c5ccc(O)cc5)oc34)c(O)cc(O)c12 | Cystathionine gamma-lyase (Homo sapiens, UniProt P32929) | IC50 | > 400 µM |
| COc1ccc(-c2cc(=O)c3c(O)cc(O)c(-c4cc(-c5cc(=O)c6c(O)cc(O)cc6o5)ccc4O)c3o2)cc1 | Cystathionine gamma-lyase (Homo sapiens, UniProt P32929) | IC50 | > 400 µM |
| C[C@@H]1O[C@@H](Oc2c(-c3ccc(O)cc3)oc3cc(O)cc(O)c3c2=O)[C@H](OC(=O)/C=C\c2ccc(O)cc2)[C@H](O)[C@H]1OC(=O)/C=C\c1ccc(O)cc1 | Cystathionine gamma-lyase (Homo sapiens, UniProt P32929) | IC50 | > 400 µM |

For the compound `NOCC(=O)O` , what IC50 is on record?
4 µM

Try this compound too: `COc1ccc([C@H]2Oc3cc(O)cc(O)c3C(=O)[C@@H]2[C@H]2C(=O)c3c(O)cc(O)cc3O[C@@H]2c2ccc(O)cc2)cc1`
> 400 µM
